Reference source: PubChem BioAssay (NCI)

Test system: SW-620 colon
Test: NCI tumour cell line growth inhibition, 48 h
*1 amine or outer side, *2 acyl side, *3 side chain or, on linkers, in order; H or OH if unused. Where a SMILES comes first, the peptide text is derived from it. Bridges are numbered along the chain shown (N, C = ends). [ ]: non-standard residue; d: D form. The star is where a group is joined. Phe(3-Me) = Cc1cccc(C[C@H](N)C(=O)O)c1; NH(4-Cl-2-F-phenyl) = Fc1cc(Cl)ccc1N*; Pro(4R-Me) = C[C@H]1CN[C@H](C(=O)O)C1; Propanoyl(3-NMe2) = CN(C)CCC(=O)*; Hyp = O=C(O)[C@@H]1C[C@@H](O)CN1; aThr = C[C@H](O)[C@H](N)C(=O)O; Pip = O=C(O)[C@@H]1CCCCN1; CO = O=C([*:1])[*:2]
# TGI listing for each entry below

C/C(=N\NC(=O)c1ccncc1)c1ccc(O)cc1O: > 100 µM
Cc1cc2[nH]c3c(C#N)c(-c4ccccc4)c(CN4CCOCC4)c(=O)n3c2cc1C: > 100 µM
Cc1cccc(C[C@H](NC(=O)Nc2ccc(Cl)cc2F)C(=O)N[C@@H]2C(=O)N3C[C@H](OC(=O)CCN(C)C)C[C@H]3C(=O)N3CCCC[C@H]3C(=O)N[C@@H](C)C(=O)N3C[C@H](C)C[C@H]3C(=O)O[C@H]2C)c1 ({NH(4-Cl-2-F-phenyl)-CO}-[Phe(3-Me)][aThr][Hyp](Propanoyl(3-NMe2))[Pip]A[Pro(4R-Me)]; ester 2-C): 2.94 µM
CCN(CC(COc1ccc2c(c1)[n+]([O-])nc(N)[n+]2[O-])OC(C)=O)C(C)=O (configuration not stated): > 100 µM
CC(=O)OCC1OC(Sc2ccccn2)C=CC1OC(C)=O (configuration not stated): > 100 µM

Request: Give its TGI value. Item: CC(C)(O)[C@H](CCO)O[Si](c1ccccc1)(c1ccccc1)C(C)(C)C
Result: 26.8 µM

Request: Give its TGI value. Item: [N-]=[N+]=NC1=C(c2ccccc2)C(=O)c2cccc3cccc1c23
Result: > 100 µM

----------
System: KM12 colon
Assay: NCI tumour cell line growth inhibition, 48 h
# TGI listing for each entry below

// below: answered molecules
Cc1cccc(NC(=O)CC#N)c1Cl: > 100 µM
O=C(/C(=C/c1cccs1)c1ccccc1)c1ccccc1: > 100 µM
Cc1ccc(C)c(NC(=O)C(Cc2c[nH]c3ccccc23)NC(=O)OCc2ccccc2)c1 (stereo unspecified): 69.7 µM
N/N=C(\C(=O)Nc1ccc([N+](=O)[O-])cc1)C(C1=Nc2cc([N+](=O)[O-])ccc2NC1)[N+](=O)[O-] (stereo unspecified): > 100 µM
O=C(CSc1nnc(-c2ccc(N=Cc3ccc(Cl)cc3)cc2)o1)Nc1cccc(Cl)c1: > 100 µM
COc1cc2c3c(n(CCCCl)c(=O)c2cc1OC)-c1ccc(C#N)cc1C3=O: > 100 µM
COc1cc(C=O)c(-c2cc3c(cc2C=O)OCO3)c(OC)c1OC: 159 µM
CC(C)(C)NC1C2CCC(C)(C1O)C2(C)C (stereo unspecified): > 100 µM
CCN1CCN(C(=O)[C@]23CCC(C)(C)C[C@@H]2C2=CC[C@@H]4[C@@]5(C)C/C(=C/c6cccnc6)C(=O)C(C)(C)[C@@H]5CC[C@@]4(C)[C@]2(C)CC3)CC1: 3.26 µM
CC1=C(c2cc(C(=O)Nc3nccs3)nc(NC#N)n2)Sc2ccccc2N1: > 100 µM

Request: Give its TGI value. Item: CN(C)/C=N/c1nc2ncn(CCOC(=O)c3ccccc3)c2c(=O)[nH]1
Result: > 100 µM

Request: Give its TGI value. Item: CN1CCCN(C(c2ccccc2)c2ccc(Br)cc2)CC1 (stereo unspecified)
Result: 7.09 µM

Request: Give its TGI value. Item: COc1c(O)cc(C(=O)O[C@@H]2Cc3c(O)cc(O)cc3O[C@@H]2c2cc(O)c(O)c(O)c2)cc1O
Result: 39 µM

Request: Give its TGI value. Item: Oc1cc2ccccc2cc1-c1n[nH]c(=S)n1-c1ccc(Cl)cc1
Result: > 100 µM

Request: Give its TGI value. Item: CC1CCC23COC(=O)C2C(O)CCC3C1(C)CC(O)c1ccoc1 (stereo unspecified)
Result: > 100 µM

Request: Give its TGI value. Item: CC(=O)c1ccc(NCN2C(=O)c3ccccc3C2=O)cc1
Result: > 100 µM

Request: Give its TGI value. Item: Cc1nc2cc(N)c(Cl)cc2[nH]1
Result: > 100 µM

Request: Give its TGI value. Item: COc1ccc(/C=C/C(=O)c2ccc(Nc3ccnc4cc(Cl)ccc34)cc2)cc1
Result: > 100 µM

Request: Give its TGI value. Item: CCCCOC(=O)C1CN2C(=NC1(C(F)(F)F)C(F)(F)F)Sc1ccccc12 (stereo unspecified)
Result: > 100 µM

Request: Give its TGI value. Item: Cc1ccc(C2=C(c3ccccc3)C(O)(c3ccc(C)cc3)C(c3ccccc3)=C2c2ccc(C)cc2)cc1
Result: > 100 µM

Request: Give its TGI value. Item: C/C(=N\Nc1nc2ccccc2o1)c1ccncn1
Result: 11.6 µM

----------
System: LOX IMVI melanoma
Test: NCI tumour cell line growth inhibition, 48 h
*1 amine or outer side, *2 acyl side, *3 side chain or, on linkers, in order; H or OH if unused. Where a SMILES comes first, the peptide text is derived from it. Bridges are numbered along the chain shown (N, C = ends). [ ]: non-standard residue; d: D form. The star is where a group is joined. Phe(3-Me) = Cc1cccc(C[C@H](N)C(=O)O)c1; NH(4-Cl-2-F-phenyl) = Fc1cc(Cl)ccc1N*; Pro(4R-Me) = C[C@H]1CN[C@H](C(=O)O)C1; Propanoyl(3-NMe2) = CN(C)CCC(=O)*; Hyp = O=C(O)[C@@H]1C[C@@H](O)CN1; aThr = C[C@H](O)[C@H](N)C(=O)O; Pip = O=C(O)[C@@H]1CCCCN1; CO = O=C([*:1])[*:2]
parameterMeasured: TGI (µM)
State just the number; it will be interpreted in µM.

O=C(CCl)Nc1ccc2c(c1)C(=O)c1ccc(NC(=O)CCl)cc1C2=O: 0.229
CC(=O)O[C@H]1[C@@H](N2CCN(C)CC2)C[C@H]2[C@@H]3CC=C4C[C@@H](N5CCCC5)CC[C@]4(C)[C@H]3CC[C@@]21C: 39.4
CC1OC(OC2CC(O)(C(=O)CO)Cc3c(O)c4c(c(O)c32)C(=O)c2ccccc2C4=O)CC(N)C1O (stereo not drawn): 0.029

Request: Given the entry COc1cc2c3c(n(CCCCl)c(=O)c2cc1OC)-c1ccc(C#N)cc1C3=O , what TGI was observed with LOX IMVI melanoma?
Result: 19.4

Request: Given the entry CC[C@@]1(O)C(=O)OCc2c1cc1n(c2=O)Cc2c-1nc1ccccc1c2/C=N/OC(C)(C)C , what TGI was observed with LOX IMVI melanoma?
Result: 0.133

Request: Given the entry COc1c(O)cc(C(=O)O[C@@H]2Cc3c(O)cc(O)cc3O[C@@H]2c2cc(O)c(O)c(O)c2)cc1O , what TGI was observed with LOX IMVI melanoma?
Result: 40.2

Request: Given the entry COc1ccc(C#CCC(OC2OC(CO)C(O)C(O)C2O)C(O)c2ccc(OC)c(OC)c2)cc1OC (stereo not drawn) , what TGI was observed with LOX IMVI melanoma?
Result: 59.1

Request: Given the entry Cc1cccc(C[C@H](NC(=O)Nc2ccc(Cl)cc2F)C(=O)N[C@@H]2C(=O)N3C[C@H](OC(=O)CCN(C)C)C[C@H]3C(=O)N3CCCC[C@H]3C(=O)N[C@@H](C)C(=O)N3C[C@H](C)C[C@H]3C(=O)O[C@H]2C)c1 ({NH(4-Cl-2-F-phenyl)-CO}-[Phe(3-Me)][aThr][Hyp](Propanoyl(3-NMe2))[Pip]A[Pro(4R-Me)]; ester 2-C) , what TGI was observed with LOX IMVI melanoma?
Result: 2.2

----------
Tested on: HT29 colon
Assay: NCI tumour cell line growth inhibition, 48 h
# TGI listing for each entry below

// below: answered compounds
CC(C)=CCC[C@H](C)[C@H]1CC[C@@H](C)c2cc(O)c(C)cc21: 37.2 µM
O=C(Nc1ccc(Br)cc1F)c1cc(Br)ccc1O: 9.71 µM
COc1ccc(CNc2nc(NCc3ccc(OC)cc3)c3n[nH]c(C(C)C)c3n2)cc1: 10.7 µM

Request: Give its TGI value. Item: COC(=O)c1scc(N)c1-n1ccc(=O)[nH]c1=O
Result: > 100 µM

Request: Give its TGI value. Item: Cc1cc(-c2ccccc2)cc2[n+]1CC=C2
Result: > 100 µM

Request: Give its TGI value. Item: [N-]=[N+]=NC1=C(c2ccccc2)C(=O)c2cccc3cccc1c23
Result: 27 µM

Request: Give its TGI value. Item: CC(C)(O)[C@H](CCO)O[Si](c1ccccc1)(c1ccccc1)C(C)(C)C
Result: 24.6 µM

Request: Give its TGI value. Item: CN1CCCCC1CCN1c2ccccc2Sc2ccc(S(C)=O)cc21 (centres undefined)
Result: > 100 µM

Request: Give its TGI value. Item: CC(NC(=O)C(N)CC(=O)O)NC(=O)N1CCCC1 (centres undefined)
Result: > 100 µM
